Test system: SK-MEL-2 melanoma
Method description: NCI-60 one-dose screen, 48 h
Stated conditions: 10 µM unless noted
Compounds without any hit were thinned out: in the full panel of roughly 83,000, 20% have a hit. The source made the active and inactive calls. The calls were made as follows: active = growth percent below 10; inactive = the rest.
Classes used: TRUE for active, FALSE for inactive

>  <Compound>
Nc1c(Cl)cc(/C=C2\C=Cc3ccccc32)cc1Cl

>  <Qualitative label>
FALSE

$$$$
>  <Compound>
O=C(O)CCCCCCCCCCN1C(=O)/C(=C2/C(=O)N(CC(=O)O)c3ccc(Br)cc32)SC1=S

>  <Qualitative label>
FALSE

$$$$
>  <Compound>
COc1cc(OC)c2c(=O)c3c(CC=C(C)C)cc(OC)c(O)c3oc2c1

>  <Qualitative label>
FALSE

$$$$
>  <Compound>
CCN(CC)C(=O)CC1=C(C)/C(=C/c2[nH]c(-c3ccc[nH]3)cc2OC)N=C1C

>  <Qualitative label>
TRUE

$$$$
>  <Compound>
COc1ccc2c(c1)C(C)Cc1c(ncnc1-n1cnc3cc(C)ccc31)N2C (stereo unspecified)

>  <Qualitative label>
FALSE

$$$$
>  <Compound>
COc1ccc2c(c1)CC[C@@H]1[C@@H]2CC[C@]2(C)c3c(cc(C#N)c4c3sc3ccccc34)C[C@@H]12

>  <Qualitative label>
FALSE

$$$$
>  <Compound>
Clc1cccc(C2Cc3cnccc3-c3[nH]c4ccncc4c32)c1 (stereo unspecified)

>  <Qualitative label>
FALSE

$$$$
>  <Compound>
C/C(=C(\c1ccc(OCCN2CCCCCC2)cc1)c1ccc(OC(=O)c2ccccc2)cc1)c1ccc(Cl)cc1

>  <Qualitative label>
FALSE

$$$$
>  <Compound>
CCCCCCCCn1ccc2cc(NC(=O)CN=[N+]=[N-])ccc21

>  <Qualitative label>
FALSE

$$$$
>  <Compound>
Cc1ncc(C(=O)Nc2ccc(CN3CCN(C)CC3)c(C(F)(F)F)c2)cc1C#Cc1cnc(N)c2ccc(C#N)cc12

>  <Qualitative label>
TRUE

$$$$
>  <Compound>
C1CCC(N2CN3c4nonc4N4CN(C5CCCCC5)CN5c6nonc6N(C2)C3C45)CC1 (stereo unspecified)

>  <Qualitative label>
FALSE

$$$$
>  <Compound>
COc1ccc(C(=O)C/C(=C\c2ccc(O)c(OC)c2)C(=O)NN)cc1

>  <Qualitative label>
FALSE

$$$$
>  <Compound>
N#Cc1ccc(O)c(C2=NCC(c3ccc(-c4ccccc4)cc3)O2)c1 (stereo unspecified)

>  <Qualitative label>
TRUE

$$$$
>  <Compound>
N[C@@H]1CCC[C@H]1NCCCCN1C(=O)c2cccc3cc([N+](=O)[O-])cc(c23)C1=O

>  <Qualitative label>
FALSE

$$$$
>  <Compound>
CCOC(=O)c1nnn(Cc2cc(=O)oc3ccc(O)cc23)c1C

>  <Qualitative label>
FALSE

$$$$
>  <Compound>
Nc1nc(C(=O)N/N=C/c2ccc(F)cc2)nn1-c1ccc(S(N)(=O)=O)cc1

>  <Qualitative label>
FALSE

$$$$
>  <Compound>
Cc1cc(=O)oc2cc(Oc3nc(Br)cn4c(Br)cnc34)ccc12

>  <Qualitative label>
FALSE

$$$$
>  <Compound>
S=c1ccnc[nH]1

>  <Qualitative label>
FALSE

$$$$
>  <Compound>
Fc1cccc(-c2nc(-c3c[nH]c4ncccc34)cs2)c1

>  <Qualitative label>
FALSE

$$$$
>  <Compound>
Oc1ccc(-c2nc3ccc4[nH]ncc4c3c3c2CCCC3)c(F)c1

>  <Qualitative label>
TRUE

$$$$
>  <Compound>
C=C1SC(=Nc2ccccc2Cl)N(C(=O)c2sc3ccccc3c2Cl)C1(C)C

>  <Qualitative label>
FALSE

$$$$
